Test system: U-2932
Assay: growth inhibition by drug plus 177Lu-lilotomab satetraxetan (1 - RLU/untreated control) (fraction); higher = stronger inhibition
Conditions: 1000 nM; time (day): 4; 177Lu-lilotomab satetraxetan 1 ug/ml
growth inhibition by drug plus 177Lu-lilotomab satetraxetan reference
Give the figure by itself; no unit, no explanation.

Look over these answered cases.
Compound	Target or system	Reported result
O=c1c(O)c(-c2ccc(O)c(O)c2)oc2cc(O)cc(O)c12 [Quercetin (Sophoretin)]	U-2932	0.0821
CC#C[C@]1(O)CC[C@H]2[C@@H]3CCC4=CC(=O)CCC4=C3[C@@H](c3ccc(N(C)C)cc3)C[C@@]21C [Mifepristone (Mifeprex)]	U-2932	-0.00915

Moving on to the next compound.
Qu. Note down growth inhibition by drug plus 177Lu-lilotomab satetraxetan recorded for CS(=O)(=O)N1CCc2c(-c3cnc(N)nc3)nc(N3CCOCC3)nc21
Ans. 0.214
